Cited source for all entries: PubChem BioAssay (NCATS)

# assayNotes: High-throughput drug toxicity screening in the BPDCN cell line Cal-1 (AID 1224825);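 also: cells exposed to compounds for 48 h; 100% = DMSO and 0% = bortezomib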
# assayContext: Cal-1 BPDCN cell viability, qHTS; at 45.8 µM (top of the series) unless noted
# Text: Blastic plasmacytoid dendritic cell neoplasm (BPDCN) is a rare, aggressive and largely incurable hematologic malignancy originating from plasmacytoid dendritic cells (pDCs). Although an initial response to chemotherapy is common, BPDCN prognosis is extremely poor and most patients relapse with drug-resistant disease leading to a median overall survival of ~1 year after diagnosis. […]
Readings of viability (% of control) for the listed molecules
valueKind: viability (% of control) (%)

| molecule | valueKind | unitDescriptor | measValue |
| --- | --- | --- | --- |
| NC(CO)C(=O)NNCc1ccc(O)c(O)c1O (stereo not drawn) | viability (% of control) | % | 79.5 |
| NCCS(=O)(=O)O | viability (% of control) | % | 133 |
| OCCN(CCO)c1nc(N2CCCCC2)c2nc(N(CCO)CCO)nc(N3CCCCC3)c2n1 | viability (% of control) | % | 95.3 |
| CC(C)NCC(O)COc1ccc(CCOCC2CC2)cc1 (stereo not drawn) | viability (% of control) | % | 97 |
| CC1(C)O[C@H]2CC(=O)OC[C@]23[C@H]2CC[C@@]4(C)[C@H](c5ccoc5)OC(=O)[C@H]5O[C@]54[C@]2(C)C(=O)C[C@@H]13 | viability (% of control) | % | 118 |
| Cn1cnc2c1c(=O)[nH]c(=O)n2C | viability (% of control) | % | 13.2 |
| O=c1c(O)c(-c2ccc(O)c(O)c2)oc2cc(O)cc(O)c12 | viability (% of control) | % | 34.4 |
| CN(C)CCC=C1c2ccccc2C=Cc2ccccc21 | viability (% of control) | % | 67.7 |
| CCC1(C)CC(=O)NC1=O (stereo not drawn) | viability (% of control) | % | 128 |
| Clc1ccc(C(c2ccccc2Cl)C(Cl)Cl)cc1 (stereo not drawn) | viability (% of control) | % | 18.1 |
| Cc1ccc(C(=O)Nc2ccc(S(=O)(=O)O)c3cc(S(=O)(=O)O)cc(S(=O)(=O)O)c23)cc1NC(=O)c1cccc(NC(=O)Nc2cccc(C(=O)Nc3cc(C(=O)Nc4ccc(S(=O)(=O)O)c5cc(S(=O)(=O)O)cc(S(=O)(=O)O)c45)ccc3C)c2)c1 | viability (% of control) | % | 102 |
| CCC1(c2ccccc2)C(=O)NCNC1=O | viability (% of control) | % | 8.03 |
| OCCN1CCN(CCCN2c3ccccc3Sc3ccc(C(F)(F)F)cc32)CC1 | viability (% of control) | % | 6.77 |
| CCOC(=O)C(C)(C)Oc1ccc(Cl)cc1 | viability (% of control) | % | 22.1 |
| CN1CCN(CCCN2c3ccccc3Sc3ccc(Cl)cc32)CC1 | viability (% of control) | % | 22.7 |
| NC(=O)NO | viability (% of control) | % | 2.6 |
| CN1C2CCC1CC(OC(=O)C(CO)c1ccccc1)C2 (stereo not drawn) | viability (% of control) | % | 113 |
| O=c1c(-c2ccc(O)cc2)coc2cc(O)cc(O)c12 | viability (% of control) | % | 13.8 |
| O=c1[nH]cc(F)c(=O)[nH]1 | viability (% of control) | % | 29.1 |
| CC1COc2c(N3CCN(C)CC3)c(F)cc3c(=O)c(C(=O)O)cn1c23 (stereo not drawn) | viability (% of control) | % | 42.1 |
| CN1CCN(C2=Nc3cc(Cl)ccc3Nc3ccccc32)CC1 | viability (% of control) | % | 83.1 |
| Nc1nc2c(ncn2COC(CO)CO)c(=O)[nH]1 | viability (% of control) | % | 3.13 |
